- Tested Target: Estrogen receptor (Homo sapiens) (UniProt P03372)
- Sequence (P03372 whole entry): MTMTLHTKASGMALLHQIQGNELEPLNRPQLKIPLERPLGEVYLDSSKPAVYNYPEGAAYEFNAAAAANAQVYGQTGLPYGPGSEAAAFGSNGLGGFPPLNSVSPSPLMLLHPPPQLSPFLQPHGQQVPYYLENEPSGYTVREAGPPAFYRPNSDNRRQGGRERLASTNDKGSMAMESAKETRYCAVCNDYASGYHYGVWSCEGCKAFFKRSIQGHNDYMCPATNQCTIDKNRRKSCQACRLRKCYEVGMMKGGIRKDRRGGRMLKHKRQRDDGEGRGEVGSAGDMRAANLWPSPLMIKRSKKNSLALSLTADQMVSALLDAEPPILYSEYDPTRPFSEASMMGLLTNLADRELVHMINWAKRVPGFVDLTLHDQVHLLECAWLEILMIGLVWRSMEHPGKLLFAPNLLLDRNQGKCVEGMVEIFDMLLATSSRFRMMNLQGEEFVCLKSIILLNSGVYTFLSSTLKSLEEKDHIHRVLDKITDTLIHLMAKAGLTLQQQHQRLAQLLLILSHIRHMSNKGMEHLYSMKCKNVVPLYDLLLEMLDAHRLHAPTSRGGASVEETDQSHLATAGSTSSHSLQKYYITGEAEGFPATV
- Experimental Details: Agonist activity at ERalpha expressed in HEK293 cells at 10 uM after 24 hrs by luciferase reporter gene assay relative to 3,17-beta-estradiol
- Type: functional, cell-based
Listed compounds paired with reported Activity
Please give a number only; it is taken to be in %.

c1ccc(CCC2=NOC(Cc3ccccc3)C2)cc1 (single isomer, unassigned) = 38.2
O=C(CCCc1ccccc1)CC(O)Cc1ccc(O)cc1 (racemic) = 16

Attention now turns to another entry.
Field request: Activity | item: CC1(c2ccccc2)CC(CCc2ccccc2O)=NO1 (single isomer, unassigned; 37b)
21.7

---

- Species: Homo sapiens
- Experimental Details: Selectivity ratio of relative binding affinity for human ERalpha to relative binding affinity for human ERbeta
Give met when the value for Ratio is at least 5. Give not met when it is less.

CC1(c2ccccc2)CC(CCCc2ccccc2)=NO1 (racemic) = not met
O=C(CCCc1ccc(O)cc1)CC(O)c1ccccc1 (single isomer, unassigned; 50a) = not met
Oc1ccc(CCC2=NOC(Cc3ccccc3)C2)cc1 (single isomer, unassigned; 3b) = not met
Oc1ccc(CCC2=NOC(Cc3ccccc3)C2)cc1 (single isomer, unassigned; 3a) = met
CC1(c2ccccc2)CC(CCCc2ccc(O)cc2)=NO1 (single isomer, unassigned; 46b) = not met

Could you now consider this next molecule?
Decide: Ratio of O=C(CCCc1ccc(O)cc1)CC(O)Cc1ccccc1 (racemic) >= 5?
met

---

- Tested Target: UniProt:P03372
- Experimental Details: Agonist activity at ERalpha expressed in HEK293 cells at 10 uM after 24 hrs by luciferase reporter gene assay relative to 3,17-beta-estradiol
- Type: functional, cell-based
Classification by Activity | ranges: group A = under 10%, group B = from 10% up to 40%, group C = 40% and over

Here's what some known entries look like.
Fc1ccc(CC2CC(CCc3ccccc3)=NO2)cc1 (single isomer, unassigned) = group B
O=C(CCc1ccc(O)cc1)CC(O)Cc1ccc(F)cc1 (racemic) = group B

Class? Entry: Oc1ccc(CCCC2=NOC(c3ccccc3)C2)cc1 (single isomer, unassigned; 45a)
group C

Here is the next molecule: O=C(CCc1ccccc1)CC(O)c1ccccc1 (single isomer, unassigned)
group B

Here is the next molecule: Oc1ccc(CC2CC(CCCc3ccc(O)c(O)c3)=NO2)cc1 (single isomer, unassigned; 28b)
group A

Here is the next molecule: Oc1ccccc1CCC1=NOC(Cc2ccc(F)cc2)C1 (stereo not drawn)
group B

Here is the next molecule: O=C(CCc1ccc(O)cc1)CC(O)Cc1ccccc1 (racemic)
group C

Here is the next molecule: c1ccc(CCC2=NOC(CCc3ccccc3)C2)cc1 (stereo not drawn)
group C

---

Listed compounds paired with reported Activity
- Tested Target: Estrogen receptor (Homo sapiens) (UniProt P03372)
- Experimental Details: Agonist activity at ERalpha expressed in HEK293 cells at 10 uM after 24 hrs by luciferase reporter gene assay relative to 3,17-beta-estradiol
- Format: functional, cell-based
Please give a number only; it is taken to be in %.

Check out these entries, answers already filled in.
CC1(c2ccccc2)CC(CCc2cccc(O)c2)=NO1 (single isomer, unassigned; 38a) = 21.6
O=C(CCCc1ccc(O)cc1)CC(O)c1cccc(O)c1 (single isomer, unassigned) = 49.3
Oc1ccc(CC2CC(CCCc3ccccc3)=NO2)cc1 (single isomer, unassigned; 25b) = 97.2
CC1(c2ccccc2)CC(CCc2ccccc2)=NO1 (single isomer, unassigned; 36a) = 8.1
CC1(c2ccccc2)CC(CCc2ccc(O)cc2)=NO1 (single isomer, unassigned; 39b) = 18.7

Field request: Activity | item: O=C(CCCc1ccc(O)cc1)CC(O)Cc1ccc(O)cc1 (stereo in doubt; 32b)
2.8

Here is the next compound: O=C(CCc1cccc(O)c1)CC(O)CCc1ccccc1 (racemic)
87.3

Here is the next compound: Oc1ccc(CCCC2=NOC(c3cccc(O)c3)C2)cc1 (stereo in doubt; 47b)
27.6

---

- Tested Target: Estrogen receptor (Homo sapiens)
- Experimental Details: Agonist activity at ERalpha expressed in HEK293 cells at 10 uM after 24 hrs by luciferase reporter gene assay relative to 3,17-beta-estradiol
- Assay type: functional, cell-based
Assay Readout: Activity
Please provide the amount together with its unit, number first.

Oc1ccc(CC2CC(CCc3ccccc3)=NO2)cc1 (configuration not stated) = 105%

Field request: Activity | item: O=C(CCCc1ccc(O)cc1)CC(O)Cc1ccc(O)cc1 (stereo in doubt; form 1)
87.4%

Here is the next compound: CC(O)(CC(=O)CCCc1ccccc1)c1ccccc1 (racemic)
83.3%

Here is the next compound: Oc1ccc(CCCC2=NOC(Cc3ccccc3)C2)cc1O (single isomer, unassigned; 27a)
0.3%

Here is the next compound: Oc1ccc(CCCC2=NOC(Cc3ccccc3)C2)cc1O (single isomer, unassigned; 27b)
2.1%

Here is the next compound: c1ccc(CCCC2=NOC(c3ccccc3)C2)cc1 (stereo in doubt; 43b)
11.5%

---

- Tested Target: Estrogen receptor (Homo sapiens) (UniProt P03372)
- Experimental Details: Agonist activity at ERalpha expressed in HEK293 cells at 10 uM after 24 hrs by luciferase reporter gene assay relative to 3,17-beta-estradiol
- Type: functional, cell-based
Listed compounds paired with reported Activity
Please provide the amount together with its unit, number first.

Oc1cccc(CCC2=NOC(CCc3ccccc3)C2)c1 (stereo in doubt; 17a) = 8.3%
O=C(CCCc1ccc(O)c(O)c1)CC(O)Cc1ccc(O)cc1 (racemic) = 0.5%
O=C(CCCc1ccc(O)cc1)CC(O)c1ccccc1 (single isomer, unassigned; 50a) = 139%
CC1(c2ccccc2)CC(CCCc2ccc(O)cc2)=NO1 (single isomer, unassigned; 46a) = 14.4%
c1ccc(CCC2=NOC(c3ccccc3)C2)cc1 (single isomer, unassigned) = 11.2%

Attention now turns to another entry.
Field request: Activity | item: Oc1cccc(CCC2=NOC(CCc3ccccc3)C2)c1 (single isomer, unassigned)
3%

Values compiled from ChEMBL document CHEMBL1157808.
